assay explanation: qHTS assay to identify small molecule antagonists of the sonic hedgehog signaling (Shh) pathway (AID 1259369); note: nearly all actives have a fitted effect of over 45% in size
conditions: NIH/3T3 Gli1-Luc reporter, Shh antagonist, luminescence 24 h; series mostly up to 92.4 µM
Results filed as inconclusive are left out. Calls of active or inactive are those of the source. Calls come from the whole dose curve.
Possible outcomes: active, inactive

INSERT INTO measurements (compound_structure_string, group) VALUES
  ('CCCC[N+]1(C)CCCCC1', 'inactive'),
  ('CCCC[n+]1cccc(C)c1', 'inactive'),
  ('CC[N+](CC)(CC)CC', 'inactive'),
  ('O=S(=O)(O)O', 'inactive'),
  ('Cc1cc(-c2ccc(N)c(C)c2)ccc1N', 'active'),
  ('CC(=O)O', 'inactive'),
  ('O=[N+]([O-])O', 'inactive'),
  ('OCCOc1ccccc1', 'inactive');

* * *

assay explanation: qHTS RealTime-Glo MT Cell Viability Assay in HEK293 cells - 16 hour (AID 1224872); note: top concentration of the series differs between compounds; nearly all actives have a fitted effect of over 50% in size
conditions: RealTime-Glo luminescence; series mostly up to 76.8 µM
Inconclusive results are not listed. Activity calls are given as the source filed them. Calls follow the shape of the dose curve; as a rule, active = well fitted cell-killing curve with a large enough effect in the repeat runs; inconclusive = weak or mixed curves, or effect the other way; inactive = flat fitted curve, though single readings scatter.
endpoint label: outcome

INSERT INTO results (compound, endpoint_label, data_value) VALUES
  ('O=C(O)C(Cl)(Cl)Cl', 'outcome', 'inactive'),
  ('O=[N+]([O-])c1ccccc1O', 'outcome', 'inactive'),
  ('O=c1[nH]c(=O)n(Cl)c(=O)n1Cl', 'outcome', 'inactive'),
  ('O=[N+]([O-])O', 'outcome', 'inactive'),
  ('O=C(O)COc1ccc(Cl)cc1Cl', 'outcome', 'inactive'),
  ('O=c1nc(O)n(Cl)c(=O)n1Cl', 'outcome', 'inactive'),
  ('CCCC[n+]1ccccc1C', 'outcome', 'inactive'),
  ('COP(=O)(OC)C(O)C(Cl)(Cl)Cl (centres undefined)', 'outcome', 'inactive'),
  ('CC(Cl)(Cl)C(=O)O', 'outcome', 'inactive'),
  ('CCCCn1cc[n+](C)c1C', 'outcome', 'inactive'),
  ('Nc1ccc(-c2ccc(N)cc2)cc1', 'outcome', 'inactive'),
  ('Oc1cccc2cccnc12', 'outcome', 'inactive'),
  ('O=C(O)C(Cl)Cl', 'outcome', 'inactive'),
  ('CCCC[n+]1cccc(C)c1', 'outcome', 'inactive');

* * *

assay explanation: qHTS RealTime-Glo MT Cell Viability Assay in HEK293 cells - 8 hour (AID 1224887); note: nearly all actives have a fitted effect of over 50% in size
conditions: RealTime-Glo luminescence; series mostly up to 76.8 µM
Results filed as inconclusive are left out. The source made the active and inactive calls. The call rests on the fitted dose curve; in most records, active means well fitted cell-killing curve with a large enough effect in the repeat runs; inconclusive means weak or mixed curves, or effect the other way; inactive means flat fitted curve, though single readings scatter.
Outcome codes: active, inactive

INSERT INTO results (compound, group) VALUES
  ('COCC(=O)N(c1c(C)cccc1C)C(C)C(=O)OC (stereo not given)', 'inactive'),
  ('O=C(O)C(Cl)Cl', 'inactive'),
  ('CCCCCC[n+]1ccccc1', 'inactive'),
  ('O=C(O)COc1ccc(Cl)cc1Cl', 'inactive'),
  ('CCCC[n+]1ccccc1', 'inactive'),
  ('CCCC[n+]1ccccc1C', 'inactive'),
  ('CNC', 'inactive'),
  ('O=C(O)c1nc(Cl)ccc1Cl', 'inactive'),
  ('O=C(O)CC(O)(CC(=O)O)C(=O)O', 'inactive'),
  ('CCCC[N+]1(C)CCCCC1', 'inactive'),
  ('CCCC[N+]1(C)CCCC1', 'inactive'),
  ('C=CCOC(Cn1ccnc1)c1ccc(Cl)cc1Cl (stereo not given)', 'inactive'),
  ('COc1ccccc1N', 'inactive'),
  ('Nc1ccc(-c2ccc(N)c(Cl)c2)cc1Cl', 'active'),
  ('CCNc1nc(Cl)nc(NCC)n1', 'inactive');

* * *

assay explanation: qHTS assay for identifying genotoxic compounds that show differential cytotoxicity against isogenic chicken DT40 cell lines with known DNA damage response pathways - Rad54/Ku70 mutant cell line (AID 743015); note: nearly all actives have a fitted effect of over 60% in size
conditions: DT40 Rad54/Ku70 mutant viability, CellTiter-Glo, 40 h; series mostly up to 66.8 µM
From the text: National Center for Advancing Translational Sciences [NCATS] NIH Chemical Genomics Center [NCGC] U.S. Environmental Protection Agency [EPA] National Institutes of Environmental Health Sciences [NIEHS] National Toxicology Program [NTP] U.S. Food and Drug Administration [FDA] DNA repair pathways play a critical role in cellular homeostasis by repairing DNA damage induced by endogenous processes and xenobiotics. […]
Inconclusive results are not listed. Active and inactive are the calls of the source. The call rests on the fitted dose curve; in most records, active means well fitted cell-killing curve with a large enough effect in the repeat runs; inconclusive means weak or mixed curves; inactive means no such curve, though single readings can be large or run the other way.
Labels: YES = active, NO = inactive

INSERT INTO measurements (molecule, group) VALUES
  ('COc1ccccc1N', 'NO'),
  ('O=C(O)C(Cl)Cl', 'NO'),
  ('O=c1[nH]c(=O)n(Cl)c(=O)n1Cl', 'NO'),
  ('OCCOc1ccccc1', 'NO'),
  ('CC[N+](CC)(CC)CC', 'NO'),
  ('CCNc1nc(Cl)nc(NCC)n1', 'NO'),
  ('CCCCCCCCn1cc[n+](C)c1', 'YES'),
  ('COCC(=O)N(c1c(C)cccc1C)C(C)C(=O)OC (centres undefined)', 'NO'),
  ('CCCCCCCCCCCCOS(=O)(=O)O', 'NO');
